Hello, the source for this data is ChEMBL document CHEMBL1614632, in case you need it.

procedure_text: clinical
condition_summary: human, in vivo, iv, t1/2
readout_label: half-life (h)

• Cc1ccccc1N1C(=O)c2cc(S(N)(=O)=O)c(Cl)cc2NC1C (configuration not stated) = 20
• CCC1=C[C@@H]2CN(C1)Cc1c([nH]c3ccccc13)[C@@](C(=O)OC)(c1cc3c(cc1OC)N(C)[C@H]1[C@@](O)(C(=O)OC)[C@H](OC(C)=O)[C@]4(CC)C=CCN5CC[C@]31[C@@H]54)C2 (stereo in doubt; form 1) = 18
• CN(C)[C@@H]1C(O)=C(C(N)=O)C(=O)[C@@]2(O)C(O)=C3C(=O)c4c(O)ccc(Cl)c4[C@@](C)(O)[C@H]3C[C@@H]12 = 7
• CN[C@@H]1[C@@H](O)[C@@H](O[C@@H]2[C@@H](O)[C@H](O[C@H]3O[C@H](CN)[C@@H](O)[C@H](O)[C@H]3O)[C@@H](N)C[C@H]2NC(=O)[C@@H](O)CN)OC[C@]1(C)O = 24
• CCCC(=O)Nc1ccc(OCC(O)CNC(C)C)c(C(C)=O)c1 (configuration not stated) = 3.5
• Nc1nc(N)c2nc(-c3ccccc3)c(N)nc2n1 = 4.3
• CN1C(=O)C(O)N=C(c2ccccc2Cl)c2cc(Cl)ccc21 (configuration not stated) = 4.9
• NC(=O)c1ncn([C@@H]2O[C@H](CO)[C@@H](O)[C@H]2O)n1 = 45
• CC(=O)OCC1=C(C(=O)O)N2C(=O)[C@@H](NC(=O)CSc3ccncc3)[C@H]2SC1 = 1.2
• CN1C(=O)CC[C@H]1c1cccnc1 = 17
• CN1CCN(CCCCN2C(=O)CN(/N=C/c3ccc(-c4ccc(Cl)cc4)o3)C2=O)CC1 [AZIMILIDE] = 79
• COC(=O)C1=C(C)NC(C)=C(C(=O)OC)C1c1ccccc1[N+](=O)[O-] = 1.9
• O=C(Cc1cccs1)N[C@@H]1C(=O)N2C(C(=O)[O-])=C(C[n+]3ccccc3)CS[C@H]12 = 1.5
• CN(C)C(=O)Oc1cccc([N+](C)(C)C)c1.[Br-] [NEOSTIGMINE BROMIDE] = 1.3
• N/N=c1/cc2c(n[nH]1)CCN(C(=O)c1ccccc1)C2 = 5.6
• Cc1cccc([C@H](C)c2cnc[nH]2)c1C = 2.2
• C=C(CC)C(=O)c1ccc(OCC(=O)O)c(Cl)c1Cl = 0.5
